Source of measurements: patent US20220177594A1

Biological target: Feline_OSMR_hlgG1_Fc (feline)
Sequence (chain, as listed by the source limits assumed, form in doubt): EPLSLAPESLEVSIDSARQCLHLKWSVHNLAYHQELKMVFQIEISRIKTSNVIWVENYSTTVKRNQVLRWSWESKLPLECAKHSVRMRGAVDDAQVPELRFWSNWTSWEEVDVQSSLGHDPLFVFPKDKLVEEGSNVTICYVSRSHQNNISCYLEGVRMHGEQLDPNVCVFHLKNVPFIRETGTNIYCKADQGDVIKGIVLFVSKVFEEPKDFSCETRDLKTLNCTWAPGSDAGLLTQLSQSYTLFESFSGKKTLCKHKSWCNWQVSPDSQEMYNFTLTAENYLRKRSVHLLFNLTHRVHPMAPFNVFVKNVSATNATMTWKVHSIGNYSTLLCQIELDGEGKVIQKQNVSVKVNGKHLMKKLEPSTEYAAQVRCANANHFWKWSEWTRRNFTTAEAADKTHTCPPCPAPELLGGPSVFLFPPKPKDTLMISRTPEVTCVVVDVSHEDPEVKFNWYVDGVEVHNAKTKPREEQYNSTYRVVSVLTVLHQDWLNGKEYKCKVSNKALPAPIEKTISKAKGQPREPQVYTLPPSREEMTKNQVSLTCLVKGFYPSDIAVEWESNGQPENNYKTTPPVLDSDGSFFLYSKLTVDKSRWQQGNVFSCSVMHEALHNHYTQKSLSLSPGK
Test: indirect ELISA, fOSMR coated; OD ratio to antibody expression control
Would you kindly list ELISA ratio for each of these binders?
Write down the numeric answer in OD ratio and omit the unit.

Ask: Given mouse: canine 09E09 chimera (antibody, V domains shown) VH: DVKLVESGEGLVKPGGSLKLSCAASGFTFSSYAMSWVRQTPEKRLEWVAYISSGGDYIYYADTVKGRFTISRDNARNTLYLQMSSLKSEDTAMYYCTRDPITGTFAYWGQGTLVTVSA VL: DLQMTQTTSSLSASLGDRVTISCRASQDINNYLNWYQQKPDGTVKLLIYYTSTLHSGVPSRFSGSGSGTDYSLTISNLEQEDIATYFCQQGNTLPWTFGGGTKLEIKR , state its recorded ELISA ratio.
Reply: 1.61

Ask: Given Mu_02D09_VH (SEQ ID NO: 31)_S52A (antibody, V domains shown) VH: EVQLVESGGGLVKPGGSLTLSCAASGFTFSDYGMHWLRQAPEKGLEWVAYIASGSRAVFFADTVKGRFTISRDNAKNTLFLQMTSLRSDDTAMYYCARDRYDGRGFAYWGQGTLVTVSA VL: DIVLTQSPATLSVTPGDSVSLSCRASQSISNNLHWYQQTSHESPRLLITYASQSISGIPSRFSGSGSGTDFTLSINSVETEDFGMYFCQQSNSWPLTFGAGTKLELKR , state its recorded ELISA ratio.
Reply: 0.001

Ask: Given Mu_09E09_VL (SEQ ID NO: 37)_G91A (antibody, V domains shown) VH: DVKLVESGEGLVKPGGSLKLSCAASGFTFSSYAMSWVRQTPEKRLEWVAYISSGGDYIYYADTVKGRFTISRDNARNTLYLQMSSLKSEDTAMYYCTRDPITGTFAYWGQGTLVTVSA VL: DLQMTQTTSSLSASLGDRVTISCRASQDINNYLNWYQQKPDGTVKLLIYYTSTLHSGVPSRFSGSGSGTDYSLTISNLEQEDIATYFCQQANTLPWTFGGGTKLEIKR , state its recorded ELISA ratio.
Reply: 0.136
